tested_target: CDK9 (Homo sapiens)
Construct: host or cells: HEK293-CDK9-Hibit
Sequence (P50750 whole entry): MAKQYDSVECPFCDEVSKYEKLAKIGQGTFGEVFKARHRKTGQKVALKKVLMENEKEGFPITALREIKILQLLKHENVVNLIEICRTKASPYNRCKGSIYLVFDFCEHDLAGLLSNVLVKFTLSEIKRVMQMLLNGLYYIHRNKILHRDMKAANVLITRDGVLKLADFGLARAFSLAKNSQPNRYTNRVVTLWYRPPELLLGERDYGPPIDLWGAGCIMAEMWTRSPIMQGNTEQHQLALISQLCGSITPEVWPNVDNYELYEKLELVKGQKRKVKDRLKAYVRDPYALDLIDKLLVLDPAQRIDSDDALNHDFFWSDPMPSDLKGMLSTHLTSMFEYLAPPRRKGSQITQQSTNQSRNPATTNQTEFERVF
measurement_protocol: HiBit Assay Protocol for CDK9 (HIBIT protein quantification, degradation)
Type: cell-based
particulars: HEK293-CDK9-Hibit cells, compound treatment for 6 hours; read-out: CDK9 HIBIT Protein Quantification Maximum
readout_type: Dmax
Just the number plus its unit, please.

Worked cases, answers included:
# compound, result
measured = [
    ("O=C1CCC(N2Cc3cc(N4CCN(CC5CCN(c6cccc(S(=O)(=O)N7CCC(Nc8ncc9c(n8)N([C@@H]8CCC[C@@H](O)C8)C(=O)C98CC8)CC7)c6)CC5)CC4)ccc3C2=O)C(=O)N1 (some centres unmarked)", "22%"),
    ("O=C1CCC(N2Cc3cc(N4CCC(CN5CCN(c6cccc(S(=O)(=O)c7ccc(Nc8ncc9c(n8)N([C@@H]8CCC[C@@H](O)C8)C(=O)C98CC8)cc7)c6)CC5)CC4)ccc3C2=O)C(=O)N1 (some centres unmarked)", "57%"),
    ("O=C1CCC(N2Cc3cc(N4CCN(CC5CCN(c6cccc(S(=O)(=O)c7ccc(Nc8ncc9c(n8)N([C@@H]8CCC[C@@H](O)C8)C(=O)C98CC8)cc7)c6)CC5)CC4)ccc3C2=O)C(=O)N1 (some centres unmarked)", "84%"),
    ("Cn1c(=O)n(C2CCC(=O)NC2=O)c2ccc(C3CCN(Cc4cccc(S(=O)(=O)N5CCC(Nc6ncc7c(n6)N([C@@H]6CCC[C@@H](O)C6)C(=O)C76CC6)CC5)c4)CC3)cc21 (some centres unmarked)", "2%"),
]

Proceed to the following item.
// output Dmax; input Cn1nc(N2CCC(=O)NC2=O)c2ccc(C3CCN(Cc4cccc(S(=O)(=O)N5CCC(Nc6ncc7c(n6)N(c6cc(F)ccc6Cl)C(=O)C76CC6)CC5)c4)CC3)cc21 ; system CDK9 (Homo sapiens)
4%

###

tested_target: CDK2 (Homo sapiens)
Construct: host or cells: HEK293-CDK2-Hibit
measurement_protocol: HiBit Assay Protocol for CDK2 (HIBIT protein quantification, degradation)
Type: cell-based
particulars: HEK293-CDK2-Hibit cells, compound treatment for 6 hours, ABS DC50
readout_type: DC50 (nM)
Give the value in nM but do not write nM after it.

Worked cases, answers included:
# compound, readout_type, numeric_value
records = [
    ("CC1CCCC1N1C(=O)C2(CC2)c2cnc(NC3CCN(S(=O)(=O)N4CC5C4CCN5C(=O)CCCc4cccc5c4n(C)c(=O)n5C4CCC(=O)NC4=O)CC3)nc21 (centres unmarked) [Compound 31]", "DC50", 17),
    ("Cn1nc(N2CCC(=O)NC2=O)c2ccc(C3CCN(Cc4cccc(S(=O)(=O)N5CCC(Nc6ncc7c(n6)N([C@@H]6CCC[C@@H](O)C6)C(=O)C76CC6)CC5)c4F)CC3)cc21 [Compound 172]", "DC50", 4.05),
    ("CC1CCCC1N1C(=O)C2(CC2)c2cnc(NC3CCN(S(=O)(=O)N4CC5(CCCN(c6cccc(-c7cccc8c7n(C)c(=O)n8C7CCC(=O)NC7=O)c6)C5)C4)CC3)nc21 (centres unmarked) [Compound 136]", "DC50", 131),
    ("C[C@H](c1cccc(S(=O)(=O)N2CC[C@H](Nc3ncc4c(n3)N([C@@H]3CCC[C@@H](O)C3)C(=O)C43CC3)[C@H](F)C2)c1)N1CCN(c2ccc3c(N4CCC(=O)NC4=O)nn(C)c3c2)C[C@@H]1C [Compound 193]", "DC50", 10.3),
]

Proceed to the following item.
Return DC50 (reported value) for this compound: O=C1CCC(N2Cc3cc(CN4CC(Oc5cccc(S(=O)(=O)c6ccc(Nc7ncc8c(n7)N([C@@H]7CCC[C@@H](O)C7)C(=O)C87CC7)cc6)c5)C4)ccc3C2=O)C(=O)N1 (some centres unmarked) [Compound 125]
4
